Reported values of Activity for individual entries
Test system: MCF-10A
Experiment: Inhibition of MPC in human MCF-10A cells assessed as cellular lactate production measured per 10^6 cells at 10 uM measured for 36 hrs
Assay type: cell-based
Reported metric: Activity

[
  {
    "Smiles str": "CCOC(=O)/C(C#N)=C/c1cn(-c2cccnc2)c2ccccc12",
    "Target under test": "MCF-10A",
    "Reported metric": "Activity",
    "Recorded result": "0.033 µmol"
  },
  {
    "Smiles str": "CCOC(=O)/C(C#N)=C/c1cn(Cc2ccncc2)c2ccccc12",
    "Target under test": "MCF-10A",
    "Reported metric": "Activity",
    "Recorded result": "-0.005 µmol"
  },
  {
    "Smiles str": "CCOC(=O)/C(C#N)=C/c1cn(-c2ncccn2)c2ccccc12",
    "Target under test": "MCF-10A",
    "Reported metric": "Activity",
    "Recorded result": "0.081 µmol"
  },
  {
    "Smiles str": "N#C/C(=C\\c1cn(-c2ncccn2)c2ccccc12)C(=O)O",
    "Target under test": "MCF-10A",
    "Reported metric": "Activity",
    "Recorded result": "0.1 µmol"
  },
  {
    "Smiles str": "CCOC(=O)/C(C#N)=C/c1cn(-c2cncnc2)c2ccccc12",
    "Target under test": "MCF-10A",
    "Reported metric": "Activity",
    "Recorded result": "0.006 µmol"
  },
  {
    "Smiles str": "N#C/C(=C\\c1cn(-c2ccccc2)c2ccccc12)C(=O)O",
    "Target under test": "MCF-10A",
    "Reported metric": "Activity",
    "Recorded result": "0.185 µmol"
  },
  {
    "Smiles str": "CCOC(=O)/C(C#N)=C/c1cn(-c2ccccn2)c2ccccc12",
    "Target under test": "MCF-10A",
    "Reported metric": "Activity",
    "Recorded result": "0.148 µmol"
  },
  {
    "Smiles str": "N#C/C(=C\\c1cn(-c2cccnc2)c2ccccc12)C(=O)O",
    "Target under test": "MCF-10A",
    "Reported metric": "Activity",
    "Recorded result": "0.06 µmol"
  },
  {
    "Smiles str": "CCOC(=O)/C(C#N)=C/c1cn(-c2ccc3ccccc3c2)c2ccccc12",
    "Target under test": "MCF-10A",
    "Reported metric": "Activity",
    "Recorded result": "0.104 µmol"
  },
  {
    "Smiles str": "N#C/C(=C\\c1cn(Cc2ccccn2)c2ccccc12)C(=O)O",
    "Target under test": "MCF-10A",
    "Reported metric": "Activity",
    "Recorded result": "0.322 µmol"
  },
  {
    "Smiles str": "CCOC(=O)/C(C#N)=C/c1cn(Cc2ccccn2)c2ccccc12",
    "Target under test": "MCF-10A",
    "Reported metric": "Activity",
    "Recorded result": "-0.03 µmol"
  }
]

* * *

Test system: MCF-10A
Experiment: Inhibition of MPC in human MCF-10A cells assessed as cellular lactate production measured per 10^6 cells at 10 uM measured for 36 hrs
Type: cell-based

[
  {
    "Smiles str": "N#C/C(=C\\c1cn(-c2cncnc2)c2ccccc12)C(=O)O",
    "Activity, µmol": 0.13
  },
  {
    "Smiles str": "CCOC(=O)/C(C#N)=C/c1cn(-c2ccncc2)c2ccccc12",
    "Activity, µmol": 0.006
  },
  {
    "Smiles str": "N#C/C(=C\\c1cn(-c2ccncc2)c2ccccc12)C(=O)O",
    "Activity, µmol": 0.014
  },
  {
    "Smiles str": "CCOC(=O)/C(C#N)=C/c1cn(Cc2cccnc2)c2ccccc12",
    "Activity, µmol": 0.208
  },
  {
    "Smiles str": "N#C/C(=C\\c1cn(Cc2ccc3ccccc3c2)c2ccccc12)C(=O)O",
    "Activity, µmol": 0.292
  },
  {
    "Smiles str": "CCOC(=O)/C(C#N)=C/c1cn(-c2cn(C)cn2)c2ccccc12",
    "Activity, µmol": 0.152
  },
  {
    "Smiles str": "N#C/C(=C\\c1cn(-c2ccccn2)c2ccccc12)C(=O)O",
    "Activity, µmol": 0.116
  },
  {
    "Smiles str": "N#C/C(=C\\c1cn(Cc2cccnc2)c2ccccc12)C(=O)O",
    "Activity, µmol": 0.093
  },
  {
    "Smiles str": "N#C/C(=C\\c1cn(-c2ccc3ccccc3c2)c2ccccc12)C(=O)O",
    "Activity, µmol": 0.123
  },
  {
    "Smiles str": "CCOC(=O)/C(C#N)=C/c1cn(Cc2ccc3ccccc3c2)c2ccccc12",
    "Activity, µmol": 0.064
  },
  {
    "Smiles str": "N#C/C(=C\\c1cn(Cc2ccncc2)c2ccccc12)C(=O)O",
    "Activity, µmol": -0.08
  },
  {
    "Smiles str": "Cn1cnc(-n2cc(/C=C(\\C#N)C(=O)O)c3ccccc32)c1",
    "Activity, µmol": -0.001
  }
]
